Origin of measurements: ChEMBL document CHEMBL4414612

# target or test system: Cannabinoid receptor 1 (Mus musculus, UniProt P47746)
# Sequence (P47746 whole entry): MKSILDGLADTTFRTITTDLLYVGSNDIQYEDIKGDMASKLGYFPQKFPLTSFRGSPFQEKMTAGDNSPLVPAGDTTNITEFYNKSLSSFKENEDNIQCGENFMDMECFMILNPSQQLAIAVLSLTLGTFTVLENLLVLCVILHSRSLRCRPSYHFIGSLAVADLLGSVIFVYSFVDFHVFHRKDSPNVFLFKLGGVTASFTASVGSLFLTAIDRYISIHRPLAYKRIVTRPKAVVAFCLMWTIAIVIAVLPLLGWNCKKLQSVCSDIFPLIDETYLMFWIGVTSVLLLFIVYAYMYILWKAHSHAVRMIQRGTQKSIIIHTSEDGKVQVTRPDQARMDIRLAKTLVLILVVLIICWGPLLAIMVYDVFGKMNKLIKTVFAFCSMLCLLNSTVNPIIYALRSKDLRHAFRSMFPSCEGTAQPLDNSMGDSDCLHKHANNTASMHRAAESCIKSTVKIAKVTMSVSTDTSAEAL
# test: Allosteric modulator activity at CB1 receptor in mouse cerebellar membranes assessed as suppression of 1 uM CP55,940-induced [35S]GTPgammaS binding incubated for 60 mins by scintillation counting method
# Format: functional, cell membranes, Cerebellum, Membrane
property name: IC50 (nM)
Your answer should be a plain number; it is taken to be in nM.

## Input Entry CN(C)c1cccc(-c2ccc(NC(=O)Nc3ccc(Cl)cc3)s2)c1 : reported IC50 = ?
## Output 2570

###

# test: Half life in rat liver microsomes
# Type: ADME, Microsome
# condition set: liver microsomes
property name: half-life

## Input Entry O=C(Nc1ccc(Cl)cc1)Nc1cccc(-c2ccc(F)cc2)c1 : reported half-life = ?
## Output > 5 h

###

Here, each record is paired with measured IC50 data.
# target or test system: Cannabinoid receptor 1 (Homo sapiens)
# test: Allosteric modulator activity at human CB1 receptor expressed in HEK293 cell membranes assessed as suppression of 100 nM CP55,940-induced [35S]GTPgammaS binding incubated for 60 mins by scintillation counting method
# Assay type: functional
Your answer should be a plain number; it is taken to be in nM.

Look over these answered cases.
> print(dat)
                            compound.smiles  experimental.value
1    O=C(Nc1ccc(Cl)cc1)Nc1ccnc(-c2ccccc2)c1                2770
2  COC(=O)c1cccc(-c2ccc(NC(=O)Nc3ccc(Cl)cc3)s2)c1                2350

Turning now to a further record.
## Input Entry O=C(Nc1ccc(Cl)cc1)Nc1ccc(-c2ccncc2)s1 : reported IC50 = ?
## Output 263

###

# test: Clearance in rat liver microsomes in presence of NADPH incubated up to 45 mins by LC-MS/MS analysis
# Type: ADME, Microsome
# condition set: liver microsomes, read-out: CLH
property name: microsomal CLint at […] (µL/min/mg)
Your answer should be a plain number; it is taken to be in µL/min/mg.

## Input Entry O=C(Nc1ccc(Cl)cc1)Nc1cccc(-c2cccc(N3CCCC3)n2)c1 : reported microsomal CLint at […] = ?
## Output 114

###

# target or test system: UniProt:P47746
# test: Allosteric antagonist activity at mouse CB1 receptor by GTPgammaS assay
# Format: functional
property name: pIC50
In textbook form, pIC50 equals minus log to base ten of the concentration in mol/L.

## Input Entry O=C(Nc1ccc(Cl)cc1)Nc1cccc(-c2cccc(N3CCCC3)n2)c1 : reported pIC50 = ?
## Output 6.94

###

# target or test system: Cannabinoid receptor 2 (Homo sapiens, UniProt P34972)
# Sequence (P34972 whole entry): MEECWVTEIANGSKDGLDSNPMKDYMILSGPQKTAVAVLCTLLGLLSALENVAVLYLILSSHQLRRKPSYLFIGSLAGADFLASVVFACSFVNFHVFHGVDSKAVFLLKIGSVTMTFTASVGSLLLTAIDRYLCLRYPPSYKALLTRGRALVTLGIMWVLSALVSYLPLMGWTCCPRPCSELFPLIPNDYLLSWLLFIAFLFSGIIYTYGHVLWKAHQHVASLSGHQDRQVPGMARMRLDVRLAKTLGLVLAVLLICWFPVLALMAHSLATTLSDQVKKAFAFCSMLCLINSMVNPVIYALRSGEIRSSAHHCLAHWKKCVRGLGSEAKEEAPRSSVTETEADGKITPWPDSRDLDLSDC
# test: Antagonist activity at human CB2 receptor expressed in CHO cells co-expressing Galpha16 assessed as inhibition of EC80 CP55,940-induced calcium mobilization preincubated for 15 mins followed by […] addition measured at 1 sec interval for 90 secs by calcium-5 dye based FLIPR assay
Here, each record is paired with measured IC50 data.

## Input Entry O=C(Nc1ccc(Cl)cc1)Nc1cccc(-c2cccc(N3CCCC3)n2)c1 : reported IC50 = ?
## Output > 10 µM

## Input Entry O=C(Nc1ccc(Cl)cc1)N[C@@H]1CCCN(c2ccccc2)C1 : reported IC50 = ?
## Output > 10 µM

## Input Entry O=C(Nc1ccc(Cl)cc1)N[C@H]1C[C@H]1c1ccccc1 (relative stereo) : reported IC50 = ?
## Output > 10 µM

###

# test: Kinetic solubility in phosphate buffer at 400 uM incubated for 2 hrs by LC-MS/MS analysis
# Type: physicochemical
# condition set: read-out: Kinetic_solubility
property name: solubility kinetic at 2 h, 400 µM (µM)
Your answer should be a plain number; it is taken to be in µM.

## Input Entry O=C(Nc1ccc(Cl)cc1)Nc1ccc(-c2ccccc2)s1 : reported solubility kinetic at 2 h, 400 µM = ?
## Output 1.5

###

Here, each record is paired with measured pIC50 data.
# target or test system: Cannabinoid receptor 1 (Homo sapiens, UniProt P21554)
# Sequence (P21554 whole entry): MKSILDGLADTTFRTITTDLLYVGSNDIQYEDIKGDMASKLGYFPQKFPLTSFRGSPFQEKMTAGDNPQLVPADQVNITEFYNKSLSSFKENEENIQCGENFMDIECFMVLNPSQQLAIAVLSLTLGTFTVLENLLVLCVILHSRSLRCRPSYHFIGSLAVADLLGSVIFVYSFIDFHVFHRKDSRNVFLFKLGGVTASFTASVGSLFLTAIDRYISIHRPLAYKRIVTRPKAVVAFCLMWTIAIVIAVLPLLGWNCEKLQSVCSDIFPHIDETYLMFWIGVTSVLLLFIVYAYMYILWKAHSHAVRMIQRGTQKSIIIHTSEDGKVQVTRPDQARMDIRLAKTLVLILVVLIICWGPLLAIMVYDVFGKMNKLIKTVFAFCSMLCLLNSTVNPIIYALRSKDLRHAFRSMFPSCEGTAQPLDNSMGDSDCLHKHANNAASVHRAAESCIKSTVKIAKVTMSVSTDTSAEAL
# test: Allosteric modulator activity at human CB1 receptor expressed in CHO-RD-HGA16 cells co-expressing Galpha16 assessed as suppression of 100 nM CP55,940-induced calcium mobilization pre-incubated for 15 mins by Calcium 5 dye based FLIPR assay
# Type: functional, cell-based
In textbook form, pIC50 equals minus log to base ten of the concentration in mol/L.

Look over these answered cases.
> print(dat)
                            compound.smiles  experimental.value
1     O=C(Nc1ccc(Cl)cc1)Nc1ccc(-c2ccccc2)s1                8.17
2  O=C(Nc1ccc(Cl)cc1)N[C@@H]1CCCN(c2ccccc2)C1                5.41
3    O=C(Nc1ccc(Cl)cc1)Nc1cc(-c2ccccc2)ccn1                6.81

## Input Entry O=C(Nc1ccc(Cl)cc1)Nc1cccc(-c2ccccc2)n1 : reported pIC50 = ?
## Output 5.45

## Input Entry O=C(Nc1ccc(Cl)cc1)Nc1ccnc(-c2ccccc2)c1 : reported pIC50 = ?
## Output 6.63

## Input Entry O=C(Nc1ccc(Cl)cc1)Nc1cncc(-c2ccccc2)c1 : reported pIC50 = ?
## Output 6.53

###

# target or test system: Cannabinoid receptor 2 (Homo sapiens)
# test: Antagonist activity at human CB2 receptor expressed in CHO cells co-expressing Galpha16 assessed as inhibition of EC80 CP55,940-induced calcium mobilization preincubated for 15 mins followed by […] addition measured at 1 sec interval for 90 secs by calcium-5 dye based FLIPR assay
Here, each record is paired with measured IC50 data.

Look over these answered cases.
> print(dat)
                            compound.smiles                  target.or.test.system  property.name  experimental.value
1  Cc1cccc(-c2ccc(NC(=O)Nc3ccc(Cl)cc3)s2)c1  Cannabinoid receptor 2 (Homo sapiens)           IC50             > 10 µM
2     O=C(Nc1ccc(Cl)cc1)Nc1ncc(-c2ccccc2)s1  Cannabinoid receptor 2 (Homo sapiens)           IC50             > 10 µM
3     O=C(Nc1ccc(Cl)cc1)Nc1ccc(-c2cccnc2)s1  Cannabinoid receptor 2 (Homo sapiens)           IC50             > 10 µM
4    O=C(Nc1ccc(Cl)cc1)Nc1cc(-c2ccccc2)ccn1  Cannabinoid receptor 2 (Homo sapiens)           IC50             > 10 µM
5  O=C(Nc1ccc(Cl)cc1)Nc1ccc(-c2cc(Cl)cc(Cl)c2)s1  Cannabinoid receptor 2 (Homo sapiens)           IC50             > 10 µM

Turning now to a further record.
## Input Entry O=C(Nc1ccc(Cl)cc1)Nc1ccc(-c2cccc(F)c2)s1 : reported IC50 = ?
## Output > 10 µM

###

# target or test system: Cannabinoid receptor 2 (Homo sapiens)
# test: Antagonist activity at human CB2 receptor expressed in CHO cells co-expressing Galpha16 assessed as inhibition of EC80 CP55,940-induced calcium mobilization at 10 uM preincubated for 15 mins followed by […] addition measured at 1 sec interval for 90 secs by calcium-5 dye based FLIPR assay relative to CP55,940
# Type: functional, cell-based
property name: inhibition

Look over these answered cases.
> print(dat)
                                   compound  property.name  experimental.value
1  COC(=O)c1cccc(-c2ccc(NC(=O)Nc3ccc(Cl)cc3)s2)c1     inhibition               < 50%
2  O=C(Nc1ccc(Cl)cc1)N[C@H]1C[C@@H]1c1ccccc1 (relative stereo)     inhibition               < 50%

Turning now to a further record.
## Input Entry O=C(Nc1ccc(Cl)cc1)Nc1cc(-c2ccccc2)ccn1 : reported inhibition = ?
## Output < 50%
